biological target: KRAS-G12D protein (Homo sapiens, UniProt P01116, G12D); experiment: SOS-mediated nucleotide exchange assay (BODIPY-GDP / Tb-streptavidin TR-FRET); assay type: biochemical
Sequence (P01116 1-188 isoform P01116-2 G12D): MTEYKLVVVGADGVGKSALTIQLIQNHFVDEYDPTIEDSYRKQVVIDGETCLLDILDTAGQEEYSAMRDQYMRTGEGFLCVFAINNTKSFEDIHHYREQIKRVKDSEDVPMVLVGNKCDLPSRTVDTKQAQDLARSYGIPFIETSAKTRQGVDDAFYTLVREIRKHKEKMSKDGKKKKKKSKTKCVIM
*1 amine or outer side, *2 acyl side, *3 side chain or, on linkers, in order; H or OH if unused. Where a SMILES comes first, the peptide text is derived from it. Bridges are numbered along the chain shown (N, C = ends). [ ]: non-standard residue; d: D form. X3 = CN([C@@H](Cc1cncnc1)C(=O)[*:2])[*:1]; Phe(4-F) = N[C@@H](Cc1ccc(F)cc1)C(=O)O; NHCH2CH2SCH2CO = O=C(CSCCN[*:1])[*:2]; NMeF = CN[C@@H](Cc1ccccc1)C(=O)O; 3Pal = N[C@@H](Cc1cccnc1)C(=O)O; Ahp(2) = CCCCC[C@H](N)C(=O)O; Cba = N[C@@H](CC1CCC1)C(=O)O; αMeC = C[C@](N)(CS)C(=O)O; Nle = CCCC[C@H](N)C(=O)O
EC50 less than 1000 nM is Fulfilled; EC50 greater than or equal to 1000 nM is Not fulfilled.

Record CCCC[C@@H]1NC(=O)[C@H](Cc2ccc(O)cc2)NC(=O)[C@H](CC(C)C)NC(=O)[C@H](Cc2ccc(O)cc2)NC(=O)[C@H](CCCNC(=N)N)NC(=O)[C@H](Cc2ccc(F)cc2)NC(=O)CSCCNC(=O)[C@H](Cc2ccccc2)N(C)C1=O [compound 75] (cyclo(LY[Nle][NMeF][NHCH2CH2SCH2CO][Phe(4-F)]RY)) : is its EC50 strictly below 1000 nM? Not fulfilled

Record CCCCC[C@@H]1NC(=O)[C@H](Cc2ccc(OC)cc2)NC(=O)[C@H](CC2CCC2)NC(=O)[C@H](Cc2cccnc2)NC(=O)[C@H](CCCNC(=N)N)NC(=O)[C@H](Cc2ccccc2)NC(=O)CSC[C@@](C)(C(N)=O)NC(=O)[C@H](Cc2cncnc2)N(C)C1=O [compound 376] ({CH2CO}-FR[3Pal][Cba]Y(Me)[Ahp(2)][X3][αMeC]-NH2; thioether N-8) : is its EC50 strictly below 1000 nM? Fulfilled
